Listed compounds paired with reported composite z-score
Assay: small-molecule microarray binders of probe aShh, primary screen, biochemical, biotinylated probe, 635/667 nm fluorescence (AID 1114);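 note: probe is biotin-labelled aShh protein from a stem cell growth factor screen; measures binding of labelled protein to compounds printed on the slide; score merges feature fluorescence at 667 nm with signal-to-noise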
Settings: higher = more signal
measured.endpoint: composite z-score

CCOC(=O)C[C@H]1[C@H](OC(=O)Cc2ccc3c(c2)OCO3)[C@@H](NC(=O)c2ccc3ccccc3c2)c2cc(OCCCO)ccc2N1C(=O)c1ccccc1    -0.2
COCCOC(=O)N1C(=O)[C@@]2(c3cc(C#CC4=CCCCC4)ccc31)[C@H](C(=O)Nc1nc3ccccc3s1)[C@H]1C(=O)O[C@H](c3ccccc3)[C@H](c3ccccc3)N1[C@@H]2c1ccc(OCCO)cc1    -0.196
O=C1O[C@@H](c2ccccc2)[C@@H](c2ccccc2)N2[C@@H](c3ccc(OCCO)cc3)[C@]3(C(=O)Nc4ccccc43)[C@@H](C(=O)NC[C@H](O)c3ccccc3)[C@H]12    -0.2

====

Target: NADPH oxidase 2 (Homo sapiens) (UniProt P04839)
Sequence (P04839 whole entry, looked up): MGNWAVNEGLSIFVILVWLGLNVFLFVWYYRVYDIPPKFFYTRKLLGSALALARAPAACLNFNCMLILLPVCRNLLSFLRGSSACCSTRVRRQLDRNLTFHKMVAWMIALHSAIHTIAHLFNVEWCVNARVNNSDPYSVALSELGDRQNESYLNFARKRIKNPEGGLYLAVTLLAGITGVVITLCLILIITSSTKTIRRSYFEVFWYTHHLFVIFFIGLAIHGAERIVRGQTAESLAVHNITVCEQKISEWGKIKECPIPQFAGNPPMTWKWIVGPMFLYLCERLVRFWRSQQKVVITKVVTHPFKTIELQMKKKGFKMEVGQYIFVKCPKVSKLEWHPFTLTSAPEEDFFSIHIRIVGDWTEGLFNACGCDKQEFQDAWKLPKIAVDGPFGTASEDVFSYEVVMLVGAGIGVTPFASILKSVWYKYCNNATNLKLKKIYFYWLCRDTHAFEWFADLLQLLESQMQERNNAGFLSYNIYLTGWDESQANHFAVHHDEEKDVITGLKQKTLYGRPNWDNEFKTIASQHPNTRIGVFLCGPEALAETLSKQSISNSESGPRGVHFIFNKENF
Test: NOX2-dependent H2O2 signal modulators, primary screen, NOX inhibitor project, cell-based, HEK293-NOX2, PMA-stimulated, Amplex Red fluorescence (AID 1159); note: test concentration not given here
Settings: 45 min, higher = more signal, called active from +8 up or from −8 down
The label depends only on z-score: Satisfied if it is at least 0.2, Not satisfied if it is smaller.

CCOC(=O)C1=CCC(c2ccccc2)N(S(=O)(=O)CC[Si](C)(C)C)C1 (stereo not given)    Not satisfied
[N-]=[N+]=Nc1ccccc1C[C@]1(C(N)=O)N=C(c2ccc(OCCCO)cc2)O[C@H]1c1ccccc1    Satisfied
CC(C)C[C@@H]1NC(=O)[C@@H]2C[C@H](C(=O)NCCCCCN)[C@H](c3cccc(OCCO)c3)N2C1=O    Satisfied
CC(C)[C@@H](CO)NC(=O)[C@H]1[C@@H](c2ccccc2)N(c2ccccc2)O[C@@H]1C    Not satisfied
C=C(C)C1C(=C)CN([C@H](CO)c2ccccc2)C1=O (stereo not given in full)    Satisfied
CC(=O)N1Cc2ccccc2C[C@@]2(COC(c3ccc(OCCCO)cc3)=N2)C1=O    Not satisfied
O=C1OCCC/C=C\[C@H]2OC34C=CCN(CCN5CCOCC5)C(=O)[C@H]3N(CCCO)C(=O)[C@@H]4C12 (stereo not given in full)    Satisfied
C=C[C@H](COC(C)=O)N(C(=O)OC(C)(C)C)S(=O)(=O)c1ccc(Br)cc1    Satisfied
O=C1NC(=O)C2C1C=CC(C(O)c1ccccc1)N2Nc1ccc(Cl)cc1Cl (stereo not given)    Not satisfied
O=C(NCc1ccccc1)[C@@]1(Cc2ccccc2)N=C(c2ccc(OCCCO)cc2)O[C@H]1c1ccccc1    Not satisfied
COC(=O)c1c(CC[C@@H](CO)NC(=O)N2CCC[C@H]2Cn2cc(-c3ccccn3)nn2)oc(C(C)=O)c1C(=O)OC    Not satisfied
C=CCC(OC(C)=O)[C@@H]1[C@@H](N(Cc2ccc(-c3cccc(C(F)(F)F)c3)o2)C(=O)c2ccc(-c3ccccc3)cc2)c2cc(OCCCO)ccc2N1C(=O)c1ccc(-c2ccccc2)cc1 (stereo not given in full)    Not satisfied
CC(C)(C)OC(=O)CC[C@@]1(C(=O)NCCN2CCOCC2)N=C(c2ccc(OCCCO)cc2)O[C@@H]1c1ccccc1N=[N+]=[N-]    Not satisfied
CC1(C)[C@@H]2CC(C(O)C3C=CC4C(=O)N(c5ccccc5)C(=O)C4N3Nc3ccccc3)=C[C@H]1C2 (stereo not given in full)    Not satisfied
C=CCNC(=O)[C@@H]1[C@H]2C(=O)O[C@H](c3ccccc3)[C@H](c3ccccc3)N2[C@H](c2ccccc2OCCO)[C@@]12C(=O)N(C(=O)OCCOC)c1ccc(C#CCNC(N)=O)cc12    Satisfied

====

Assay: Plasmodium falciparum growth inhibition, primary screen, strain 3D7, DAPI fluorescence, 100 nL (AID 1184);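 note: parasites grown inside human red blood cells in medium with human serum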
Conditions: P. falciparum 3D7 growth, 3 d, higher = more signal
Outcome: true for z-score of at least -0.4; false for anything lower.

C=CCN1C(=O)[C@@]2(O[C@@H](CCO)[C@H]([Si](C)(C)c3ccc(OC)cc3)[C@H]2C)c2cc(NC(=O)c3ccc(OC)cc3)ccc21    false
COc1ccc([Si](C)(C)[C@@H]2[C@@H](CCO)O[C@]3(C(=O)N(Cc4ccc(N5C(=O)COc6ccccc65)cc4)c4ccccc43)[C@H]2C)cc1    false
COc1cc(OC)c(C(O)C2C=CC3C(=O)NC(=O)C3N2Nc2ccc(Cl)cc2Cl)cc1Br (stereo unspecified)    true
COc1cc2c(cc1OC)CN(C(=O)[C@@H]1[C@H]3C(=O)O[C@H](c4ccccc4)[C@H](c4ccccc4)N3[C@H](c3ccc(O)cc3)[C@@]13C(=O)Nc1ccc(C#CC4(O)CCCCCC4)cc13)CC2    false
Cc1ccc(S[C@]2(C(=O)NCC(C)C)CC(=O)N(Cc3cc(C(F)(F)F)cc(C(F)(F)F)c3)[C@@H]2c2ccc(CO)cc2I)cc1    false
COc1ccc(CCN2C(=O)[C@@]3(c4ccc([N+](=O)[O-])cc4)CC(=O)N(C4CCCCC4)[C@@H]3c3ccc(CO)cc32)cc1    true

====

Target: Carbonic anhydrase 2 (Homo sapiens)
Experiment: CAII small-molecule binders, profiling panel, biochemical, small-molecule microarray, Alexa647-labelled CAII (AID 1122)
Conditions: CAII-A647 binding fluorescence, higher = more signal
The following compounds are shown together with reported composite z-score values.
measured.endpoint: composite z-score

COCCOC(=O)N1C(=O)[C@@]2(c3cc(C#CCCO)ccc31)[C@H](C(=O)N1CCN(c3ncccn3)CC1)[C@H]1C(=O)O[C@H](c3ccccc3)[C@H](c3ccccc3)N1[C@@H]2c1ccccc1OCCO    0.582
COc1ccc(C#Cc2ccc3c(c2)[C@]2(C(=O)N3)[C@H](c3ccccc3OCCO)N3[C@H](c4ccccc4)[C@H](c4ccccc4)OC(=O)[C@H]3[C@@H]2C(=O)O)cc1    0.473
CN(C)CCCNC(=O)[C@@]1(C)c2ccccc2C(=O)N(Cc2cc(F)cc(C(F)(F)F)c2)[C@H]1c1ccc(CO)cc1    0.769
CC(C)(C)OC(=O)CC[C@@]12N=C(c3ccc(OCCCO)cc3)O[C@@H]1c1ccccc1N(CCS(=O)(=O)c1ccccc1)C2=O    0.73
CCOC(=O)[C@H]1C/C=C/C[C@H](C(=O)OCC)C(=O)O[C@H]2[C@@H](OC)O[C@H](CO)[C@@H](OC(=O)Nc3ccc(C#N)cc3)[C@@H]2OC1=O    0.607
O=C1C2C=CC(C(O)C(c3ccccc3)c3ccccc3)N(n3cnnc3)C2C(=O)N1Cc1ccccc1 (configuration not stated)    0.635
C=CC[C@]1(C(=O)N2CCCCC2)N=C(c2ccc(OCCCO)cc2)O[C@H]1c1ccccc1    0.63

====

Measured z-score values are reported for all entries that follow.
Assay: splicing luciferase reporter signal modulators, primary screen, spliceosome inhibition project, cell-based, HEK293, splice +/- reporter (AID 1101);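 note: HEK293 cells carrying a splicing-competent luciferase reporter gene; test concentration not given here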
Conditions: luminescence, 24 h, higher = more signal, called active from +8 up or from −8 down
measured.endpoint: z-score

CCCCCN1CC=CC23O[C@@H]4/C=C\CCCOC(=O)C4[C@H]2C(=O)N(C(CO)C(C)C)[C@@H]3C1=O (stereo partly drawn)    -0.455
CC1CC/C=C\[C@H]2OC34C=CCN(c5ccc(Cl)cc5)C(=O)[C@H]3N(CCO)C(=O)[C@]4(C)C2C(=O)O1 (stereo partly drawn)    0.568
CN1C2C=C(CCCO)C(C3C(=O)N(C(N)=O)C(=O)C32)C1c1ccc(CN2CCCC2)cc1 (stereo not drawn)    -0.0848

====

Assay: CREB reporter modulators without forskolin, primary screen, cell-based, PC12, CRE-LacZ reporter, unstimulated (AID 1145)
Conditions: no forskolin, luminescence, 4.5 h, higher = more signal, called active from +8 up or from −8 down
Measured z-score values are reported for all entries that follow.
measured.endpoint: z-score

COC(=O)[C@@]1(Cc2ccccc2)[C@H]2c3cc(C(=O)N(C)C)n(CCSCCO)c3C[C@H]2CN1C(=O)c1ccccc1    0.397
CC(C)C[C@@H]1NC(=O)[C@H]2C[C@@H](C(=O)NCCCCCCN(C)C)[C@@H](c3ccc(O)cc3)N2C1=O    -0.398
CCOC(=O)[C@H]1C/C=C/C[C@H](C(=O)OCC)C(=O)O[C@H]2[C@@H](OC)O[C@H](CO)[C@@H](OC(=O)Nc3cccc(F)c3)[C@@H]2OC1=O    0.765
CCCCN1CC=CC23O[C@@H]4/C=C\CCC(C)OC(=O)C4[C@H]2C(=O)N(CCCCCO)[C@@H]3C1=O (stereo partly specified)    0.191
O=C1C2C=CC(C(O)c3ccc(F)cc3)N(Nc3ccccc3F)C2C(=O)N1c1ccccc1 (stereo unspecified)    0.433
O=C1O[C@H](c2ccccc2)[C@H](c2ccccc2)N2[C@H]1[C@@H](C(=O)Nc1nc3ccccc3s1)[C@]1(C(=O)Nc3ccc(C#CC4(O)CCCCCC4)cc31)[C@H]2c1ccc(OCCO)cc1    -0.402
